The reader will find reported IC50 values listed item by item below.
# assay overview: Anticancer human tumor 997537-175-T-J1-PDC patient-derived colon adenocarcinoma cell line growth inhibition [POLQ];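 note: luminescence signal used as a surrogate for viable cells; spheroids exposed to drugs for seven days before readout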
# particulars: 997537-175-T-J1-PDC complex spheroid viability, combination with POLQ inhibitors; curve of first compound; second compound 1 µM

Below are worked cases with known answers.
compound	IC50
C=CC(=O)N1CCN(c2nc(=O)n(-c3c(C)ccnc3C(C)C)c3nc(-c4c(O)cccc4F)c(F)cc23)C(C)C1 (stereo not drawn) + Nc1ccc(C#CCN(C(=O)Cc2ncc(C(F)(F)F)cc2C(F)(F)F)c2ccc(F)cc2)nn1	> 10 µM
CC[C@@]1(O)C(=O)OCc2c1cc1n(c2=O)Cc2cc3c(CN(C)C)c(O)ccc3nc2-1 + Nc1ccc(C#CCN(C(=O)Cc2ncc(C(F)(F)F)cc2C(F)(F)F)c2ccc(F)cc2)nn1	> 0.1 µM

Turning now to a further compound:
Q: Param item = COc1cc2cc(C(=O)CCC(=O)O)sc2cc1OC + COC1C(OC(N)=O)C(O)C(Oc2ccc3c(O)c(NC(=O)c4ccc(O)c(CC=C(C)C)c4)c(=O)oc3c2C)OC1(C)C ; retrieve measured IC50.
Result: > 10 µM
